molecular target: SARS-CoV-2 M^pro (Severe acute respiratory syndrome coronavirus 2, UniProt P0DTD1); construct: covers ORF1ab polyprotein residues 3264–3569; N-terminal leader ending in the Mpro autocleavage site (SAVLQ*SGFRK) (N, cleaved yes); made in house; host or cells: Escherichia coli BL21 (DE3), pET100D-Topo vector; experiment: Fluorescence-based cleavage assay with AFC-peptide substrate, IC50 against M^pro; format: biochemical
pIC50: −log10 of the molar value.

molecule | pIC50
Cc1ccc(NC(=O)[Se]c2ccccc2)cc1 [Cmp. 3b] | 5.98

====

molecular target: SARS-CoV-2 M^pro (Severe acute respiratory syndrome coronavirus 2); construct: covers ORF1ab polyprotein residues 3264–3569; N-terminal leader ending in the Mpro autocleavage site (SAVLQ*SGFRK) (N, cleaved yes); made in house; host or cells: Escherichia coli BL21 (DE3), pET100D-Topo vector; test: Fluorescence-based cleavage assay with AFC-peptide substrate, IC50 against M^pro; format: biochemical; conditions: recombinant M^pro 5-50 nM, 1 h pre-incubation at 25 °C, AFC-peptide substrate 12 μM, PBS pH 7.5; mean ± SD (n = 3); read-out: IC50 against M^pro

compound | IC50, nM
Cc1cc(C)cc(NC(=O)[Se]Cc2ccc(S(N)(=O)=O)cc2)c1 [Cmp. 3c] | 704

Sourced from paper PMC10815619
